Would you kindly list protein stability index for each of these variants?
B1: COX4I1 (parent)
chain: FDKEWVAKQTKRMLDMKVNPIQGL

Variants of: B1
method: protein stability index of a GFP-peptide fusion (GPS, HEK-293T) (PSI 1-6); higher = more stable;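 further: lentivirally expressed fusions sorted by FACS into six bins by GFP to DsRed ratio, PSI derived from sequencing read proportions per bin multiplied by bin number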
assay context: c terminus: a fixed tail appended
One number for each entry.

These recorded examples may help you get a feel for the data.
V18E: 1.95
K11F: 1.97

Proceed to the following item.
For the variant R12H , what protein stability index is on record? 1.97
